Hey, just so you know, these numbers are from patent US20180044415A1.

# target-entity: T1, human DLL3 (immobilized human DLL3 or h293-hDLL3 cells) (human, UniProt Q9NYJ7 27-492, limits assumed)
# T1 construct: the sentence says 'immobilized human DLL3 or h293-hDLL3 cells'
# T1 sequence: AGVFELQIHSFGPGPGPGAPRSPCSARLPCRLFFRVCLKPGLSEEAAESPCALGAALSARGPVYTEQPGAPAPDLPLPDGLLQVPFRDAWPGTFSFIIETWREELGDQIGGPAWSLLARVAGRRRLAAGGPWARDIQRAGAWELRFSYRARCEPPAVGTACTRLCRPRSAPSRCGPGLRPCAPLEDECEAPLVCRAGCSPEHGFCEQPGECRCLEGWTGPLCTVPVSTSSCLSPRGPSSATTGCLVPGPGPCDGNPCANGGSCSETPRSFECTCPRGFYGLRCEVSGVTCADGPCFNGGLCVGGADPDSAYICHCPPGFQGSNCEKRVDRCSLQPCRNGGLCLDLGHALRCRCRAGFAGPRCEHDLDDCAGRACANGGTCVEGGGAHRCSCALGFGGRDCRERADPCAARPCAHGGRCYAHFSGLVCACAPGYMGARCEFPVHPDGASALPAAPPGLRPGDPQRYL
# measurement-protocol: hybridoma screening on immobilized human DLL3 or on h293-hDLL3 cells

binder	binding result
SC16.41 (antibody, V domains shown, murine mAb; variable regions only) VH: EVKLEESGGGLVQFGGSMKLSCAASGFTFSDAWMDWVRQSPEKGLEWVAEIRNKANNHATYYPESVKGRFTISRDDSKSRVYLQMNNLRAEDTGIYYCTGYSSFAYWGQGTLVTVSA VL: DIQMTQTTSSLSASLGDRVTISCRASQDVINYLNWYQQKPDGTVKLLIYYTSRLHSGVPSRFSGSGSRTDYSLTISNLEPEDIATYYCQQYSERPYTFGGGTKLEIK	binds
SC16.10 (antibody, V domains shown, murine mAb; variable regions only) VH: QVTLKESGPGILQSSQTLSLTCSFSGFSLSTSGMGVGWIRQPSGKGLEWLAHIWWDDVKRYNPVLKSRLTISKDTSSSQVFLKIASVDTADTATYYCARLVDDLYYFDYWGQGTTLTVSS VL: QIVLTQSPAIMSASLGERVTMTCTASSSVSSSYLHWYQQKPGSSPKLWIYSTSNLASGVPTRFSGSGSGTSYSLTISSMEAEDAATYYCHQYHRSPFTFGSGTKLEIK	binds
